These entries and their values trace back to patent US9944603B2.

- TARGET: human F508del CFTR (Homo sapiens, UniProt P13569, DEL508-508)
- Sequence (P13569 with tags, fused parts or gaps DEL508-508): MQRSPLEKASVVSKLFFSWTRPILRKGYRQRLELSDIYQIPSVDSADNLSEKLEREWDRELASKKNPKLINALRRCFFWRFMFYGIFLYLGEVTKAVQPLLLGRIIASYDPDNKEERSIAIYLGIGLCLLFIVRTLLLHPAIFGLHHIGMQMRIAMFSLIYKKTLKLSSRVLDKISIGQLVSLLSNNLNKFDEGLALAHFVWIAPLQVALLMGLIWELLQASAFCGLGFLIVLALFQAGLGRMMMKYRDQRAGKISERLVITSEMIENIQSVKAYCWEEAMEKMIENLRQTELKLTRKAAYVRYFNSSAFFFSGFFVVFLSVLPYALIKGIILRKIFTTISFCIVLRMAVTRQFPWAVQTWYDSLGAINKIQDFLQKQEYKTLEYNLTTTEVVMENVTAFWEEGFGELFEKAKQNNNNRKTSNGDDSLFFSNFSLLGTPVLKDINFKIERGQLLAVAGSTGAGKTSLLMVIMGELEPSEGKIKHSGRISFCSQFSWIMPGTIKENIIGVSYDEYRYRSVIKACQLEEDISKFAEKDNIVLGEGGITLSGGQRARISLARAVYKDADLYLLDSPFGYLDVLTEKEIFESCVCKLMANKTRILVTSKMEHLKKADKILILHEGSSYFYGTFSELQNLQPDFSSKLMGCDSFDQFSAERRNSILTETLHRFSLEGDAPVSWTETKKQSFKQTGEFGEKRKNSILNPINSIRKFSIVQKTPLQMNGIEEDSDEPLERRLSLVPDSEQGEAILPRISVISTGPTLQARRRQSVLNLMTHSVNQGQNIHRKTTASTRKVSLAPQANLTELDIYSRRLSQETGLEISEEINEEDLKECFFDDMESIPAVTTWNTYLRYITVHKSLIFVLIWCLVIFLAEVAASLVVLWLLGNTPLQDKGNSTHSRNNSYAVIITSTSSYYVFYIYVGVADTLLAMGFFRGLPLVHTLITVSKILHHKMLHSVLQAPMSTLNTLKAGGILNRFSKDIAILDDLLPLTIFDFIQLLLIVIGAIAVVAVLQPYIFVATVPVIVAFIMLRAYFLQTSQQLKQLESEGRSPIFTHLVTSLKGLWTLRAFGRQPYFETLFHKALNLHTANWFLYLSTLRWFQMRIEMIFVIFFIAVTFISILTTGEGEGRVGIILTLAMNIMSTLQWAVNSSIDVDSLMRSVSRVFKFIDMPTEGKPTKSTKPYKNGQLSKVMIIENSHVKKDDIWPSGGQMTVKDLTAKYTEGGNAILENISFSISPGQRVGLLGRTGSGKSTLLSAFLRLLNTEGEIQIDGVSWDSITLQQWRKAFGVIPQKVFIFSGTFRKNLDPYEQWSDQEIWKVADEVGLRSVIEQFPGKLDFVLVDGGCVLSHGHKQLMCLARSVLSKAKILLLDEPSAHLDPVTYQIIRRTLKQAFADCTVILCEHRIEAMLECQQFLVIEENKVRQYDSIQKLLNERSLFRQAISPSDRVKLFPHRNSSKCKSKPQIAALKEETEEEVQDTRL
- PROCEDURE SUMMARY: CFTR-YFP Assay, CFTR Corrector Protocol (YFP flux assay)
Field: EC50. Provide a value for each of the compounds that follow.

Query (compound): `O=S(=O)(c1ccc2c(c1)CCO2)N1CCC(n2c(-c3ccc(F)cc3F)nc3cccnc32)CC1` ; field requested: EC50
< 10 µM

Query (compound): `COc1ccc(S(=O)(=O)N2CCC(N(C(=O)c3ccccc3Cl)c3ccccn3)CC2)cc1F` ; field requested: EC50
< 10 µM

Query (compound): `CCc1ccc(S(=O)(=O)N2CCC(N(C(=O)c3ccccc3Cl)c3ccc(I)cc3)CC2)cc1` ; field requested: EC50
< 10 µM

Query (compound): `CCc1ccc(N(C(=O)c2ccccc2Cl)C2CCN(S(=O)(=O)c3ccc(CC)cc3)CC2)cc1` ; field requested: EC50
10 to 20 µM

====

Field: pEC50. Provide a value for each of the compounds that follow.
- TARGET: human F508del CFTR (Homo sapiens, UniProt P13569, DEL508-508)
- PROCEDURE SUMMARY: CFTR-YFP Assay, CFTR Corrector Protocol (YFP flux assay)
pEC50: −log10 of the molar value.

Query (compound): `COc1ccc(N(C2CCN(S(=O)(=O)c3ccc4nc(C)oc4c3)CC2)S(=O)(=O)c2ccccc2Cl)nc1` ; field requested: pEC50
4.70 to 5.00

Query (compound): `COc1ccc(S(=O)(=O)N2CCC(n3c(-c4ccccc4Cl)nc4ccc(C)nc43)CC2)cc1OC` ; field requested: pEC50
< 4.70

Query (compound): `COc1ccc(S(=O)(=O)N2CCC(N(C(=O)c3ccccc3)c3ccccn3)CC2)cc1F` ; field requested: pEC50
> 5.00

Query (compound): CC(=O)N1c2ccc(S(=O)(=O)N3CCC(n4c(-c5ccncn5)nc5cccnc54)CC3)cc2CC1C (stereo not shown) ; field requested: pEC50
4.70 to 5.00

Query (compound): `CCc1ccc(S(=O)(=O)N2CCC(n3c(-c4cccnc4Cl)nc4cccnc43)CC2)cc1` ; field requested: pEC50
> 5.00

Query (compound): `CCc1ccc(S(=O)(=O)N2CCC(N(c3ccccn3)S(=O)(=O)c3ccccc3Cl)CC2)cc1` ; field requested: pEC50
> 5.00

Query (compound): `CCc1ccc(S(=O)(=O)N2CCC(N(c3cc(Cl)ccn3)S(=O)(=O)c3ccccc3Cl)CC2)cc1` ; field requested: pEC50
> 5.00

====

- TARGET: human F508del CFTR (Homo sapiens, UniProt P13569, DEL508-508)
- Construct: expressed in transfected cells
- PROCEDURE SUMMARY: CFTR-YFP Assay, CFTR Corrector Protocol (YFP flux assay)
- Type: cell-based
- PROTOCOL CONDITIONS: normalized to the positive control, read-out: EMAX (% Efficacy, EMAX normalized to the positive control)
TEST READOUT: Emax

Query (molecule): `CCc1ccc(S(=O)(=O)N2CCC(n3c(-c4ccncc4Cl)nc4cccnc43)CC2)cc1` ; field requested: Emax
30 to 80%

Query (molecule): `O=S(=O)(c1ccc2c(c1)OC(F)(F)O2)N1CCC(n2c(-c3ccccc3Cl)nc3cccnc32)CC1` ; field requested: Emax
30 to 80%

Query (molecule): `COc1ccc2c(c1)nc(-c1ccncc1Cl)n2C1CCN(S(=O)(=O)c2ccc3c(c2)OC(F)(F)O3)CC1` ; field requested: Emax
30 to 80%

Query (molecule): `Cc1cc2cc(S(=O)(=O)N3CCC(n4c(-c5ccncc5F)nc5cccnc54)CC3)ccc2[nH]1` ; field requested: Emax
10 to 30%

Query (molecule): `CCc1ccc(S(=O)(=O)N2CCC(N(c3ccccn3)S(=O)(=O)c3cccc(C)c3)CC2)cc1` ; field requested: Emax
10 to 30%

Query (molecule): `O=S(=O)(c1ccc2c(c1)OC(F)(F)O2)N1CCC(n2c(-c3ccncc3Cl)nc3cnccc32)CC1` ; field requested: Emax
10 to 30%

Query (molecule): `Cc1cccc(N(C2CCN(S(=O)(=O)c3ccc4c(c3)OC(F)(F)O4)CC2)S(=O)(=O)c2ccccc2Cl)n1` ; field requested: Emax
10 to 30%

====

Field: Emax. Provide a value for each of the compounds that follow.
- TARGET: human F508del CFTR (Homo sapiens, UniProt P13569, DEL508-508)
- Construct: expressed in transfected cells
- PROCEDURE SUMMARY: CFTR-YFP Assay, CFTR Corrector Protocol (YFP flux assay)
- Assay type: cell-based
- PROTOCOL CONDITIONS: normalized to the positive control, read-out: EMAX (% Efficacy, EMAX normalized to the positive control)

Record COc1cccc(S(=O)(=O)N2CCC(n3c(-c4ccccc4)nc4cccnc43)CC2)c1 [Example 68] : what is its Emax with human F508del CFTR (Homo sapiens, UniProt P13569, DEL508-508)?
10 to 30%

Record CCc1ccc(S(=O)(=O)N2CCC(N(C(=O)c3ccccc3Cl)c3ccccc3)CC2)cc1 [Example 210] : what is its Emax with human F508del CFTR (Homo sapiens, UniProt P13569, DEL508-508)?
30 to 80%

Record COc1ccc(S(=O)(=O)N2CCC(n3c(-c4ccccc4)cc4cccnc43)CC2)cc1Cl [Example 98] : what is its Emax with human F508del CFTR (Homo sapiens, UniProt P13569, DEL508-508)?
10 to 30%

Record CCc1ccc(S(=O)(=O)N2CCC(N(C(=O)c3ccccc3Cl)c3ccc(I)cc3)CC2)cc1 [Example 216] : what is its Emax with human F508del CFTR (Homo sapiens, UniProt P13569, DEL508-508)?
10 to 30%

Record O=S(=O)(c1ccc2snc(Cl)c2c1)N1CCC(n2c(-c3ccncc3Cl)nc3cccnc32)CC1 [Example 157] : what is its Emax with human F508del CFTR (Homo sapiens, UniProt P13569, DEL508-508)?
10 to 30%

Record CCc1ccc(S(=O)(=O)N2CCC(N(C(=O)c3ccccc3Cl)c3ccccn3)CC2)cc1 [Example 196] : what is its Emax with human F508del CFTR (Homo sapiens, UniProt P13569, DEL508-508)?
30 to 80%

Record O=S(=O)(c1ccc(OC(F)F)cc1)N1CCC(n2c(-c3ccccc3Cl)nc3cccnc32)CC1 [Example 46] : what is its Emax with human F508del CFTR (Homo sapiens, UniProt P13569, DEL508-508)?
30 to 80%

Record CCc1ccc(S(=O)(=O)N2CCC(N(c3ccc(C)cc3)S(=O)(=O)c3ccccc3Cl)CC2)cc1 [Example 237] : what is its Emax with human F508del CFTR (Homo sapiens, UniProt P13569, DEL508-508)?
10 to 30%

Record CCc1ccc(S(=O)(=O)N2CCC(N(c3ccc(OC)cn3)S(=O)(=O)c3ccccc3Cl)CC2)cc1 [Example 218] : what is its Emax with human F508del CFTR (Homo sapiens, UniProt P13569, DEL508-508)?
10 to 30%

Record COC(=O)c1ccccc1-c1nc2cccnc2n1C1CCN(S(=O)(=O)c2ccc(OC)c(Cl)c2)CC1 [Example 79] : what is its Emax with human F508del CFTR (Homo sapiens, UniProt P13569, DEL508-508)?
30 to 80%

Record Cc1cccc(N(C(=O)c2ccccc2Cl)C2CCN(S(=O)(=O)c3ccc4c(c3)OCO4)CC2)n1 [Example 202] : what is its Emax with human F508del CFTR (Homo sapiens, UniProt P13569, DEL508-508)?
10 to 30%

Record O=S(=O)(c1ccc2c(c1)OC(F)(F)O2)N1CCC(n2c(-c3ccccc3OC(F)F)nc3cccnc32)CC1 [Example 126] : what is its Emax with human F508del CFTR (Homo sapiens, UniProt P13569, DEL508-508)?
30 to 80%

Record COc1ccc(S(=O)(=O)N2CCC(n3c(-c4ccc(F)cc4F)nc4cccnc43)CC2)cc1Cl [Example 53] : what is its Emax with human F508del CFTR (Homo sapiens, UniProt P13569, DEL508-508)?
30 to 80%

Record Cc1cc2cc(S(=O)(=O)N3CCC(n4c(-c5ccncn5)nc5cccnc54)CC3)ccc2[nH]1 [Example 147] : what is its Emax with human F508del CFTR (Homo sapiens, UniProt P13569, DEL508-508)?
10 to 30%

Record O=S(=O)(c1ccc2c(c1)OC(F)(F)O2)N1CCC(n2c(-c3ccc(F)cc3F)nc3cccnc32)CC1 [Example 109] : what is its Emax with human F508del CFTR (Homo sapiens, UniProt P13569, DEL508-508)?
30 to 80%

Record Cc1nc2ccc(S(=O)(=O)N3CCC(n4c(-c5ccncc5F)nc5cccnc54)CC3)cc2s1 [Example 132] : what is its Emax with human F508del CFTR (Homo sapiens, UniProt P13569, DEL508-508)?
30 to 80%

Record COc1ccc2nc(-c3ccncc3Cl)n(C3CCN(S(=O)(=O)c4ccc5c(c4)OC(F)(F)O5)CC3)c2n1 [Example 118] : what is its Emax with human F508del CFTR (Homo sapiens, UniProt P13569, DEL508-508)?
30 to 80%

Record COc1ccc(S(=O)(=O)N2CCC(n3c(-c4ccccc4OC(F)(F)F)nc4cccnc43)CC2)cc1Cl [Example 76] : what is its Emax with human F508del CFTR (Homo sapiens, UniProt P13569, DEL508-508)?
30 to 80%

Record Cc1cccc(N(C2CCN(S(=O)(=O)c3ccc4nc(C)oc4c3)CC2)S(=O)(=O)c2ccccc2Cl)n1 [Example 220] : what is its Emax with human F508del CFTR (Homo sapiens, UniProt P13569, DEL508-508)?
30 to 80%

Record O=S(=O)(c1ccc(OC(F)F)cc1)N1CCC(n2c(-c3ccncc3Cl)nc3cccnc32)CC1 [Example 56] : what is its Emax with human F508del CFTR (Homo sapiens, UniProt P13569, DEL508-508)?
30 to 80%

Record CCc1ccc(S(=O)(=O)N2CCC(N(C(=O)Nc3ccccc3Cl)c3cccc(C)n3)CC2)cc1 [Example 175] : what is its Emax with human F508del CFTR (Homo sapiens, UniProt P13569, DEL508-508)?
10 to 30%

Record COc1ccc(S(=O)(=O)N2CCC(N(c3cccc(C)n3)S(=O)(=O)c3ccccc3)CC2)cc1Cl [Example 187] : what is its Emax with human F508del CFTR (Homo sapiens, UniProt P13569, DEL508-508)?
10 to 30%

Record O=S(=O)(c1ccc2c(c1)OCO2)N1CCC(n2c(-c3ccccc3C(F)(F)F)nc3cccnc32)CC1 [Example 100] : what is its Emax with human F508del CFTR (Homo sapiens, UniProt P13569, DEL508-508)?
10 to 30%

Record Cc1cccc(N(C(=O)c2ccccc2)C2CCN(S(=O)(=O)c3ccc4c(c3)OC(F)(F)O4)CC2)n1 [Example 205] : what is its Emax with human F508del CFTR (Homo sapiens, UniProt P13569, DEL508-508)?
10 to 30%

Record O=S(=O)(c1ccc2c(c1)OC(F)(F)O2)N1CCC(n2c(-c3ccccc3)cc3ccccc32)CC1 [Example 104] : what is its Emax with human F508del CFTR (Homo sapiens, UniProt P13569, DEL508-508)?
30 to 80%

Record Cc1n[nH]c2ccc(S(=O)(=O)N3CCC(n4c(-c5ccncc5F)nc5cccnc54)CC3)cc12 [Example 141] : what is its Emax with human F508del CFTR (Homo sapiens, UniProt P13569, DEL508-508)?
10 to 30%

Record Cc1cc(C)c(S(=O)(=O)N(c2ccccn2)C2CCN(S(=O)(=O)c3ccc4c(c3)OC(F)(F)O4)CC2)c(C)c1 [Example 185] : what is its Emax with human F508del CFTR (Homo sapiens, UniProt P13569, DEL508-508)?
30 to 80%

Record Cc1ccc(S(=O)(=O)N2CCC(n3c(-c4ccccc4Cl)nc4cccnc43)CC2)cc1C#N [Example 96] : what is its Emax with human F508del CFTR (Homo sapiens, UniProt P13569, DEL508-508)?
30 to 80%

Record CCc1ccc(S(=O)(=O)N2CCC(n3c(-c4cccnc4F)nc4cccnc43)CC2)cc1 [Example 120] : what is its Emax with human F508del CFTR (Homo sapiens, UniProt P13569, DEL508-508)?
> 80%

Record Cc1nc2ccc(S(=O)(=O)N3CCC(n4c(-c5ccc(F)cc5F)nc5cccnc54)CC3)cc2o1 [Example 134] : what is its Emax with human F508del CFTR (Homo sapiens, UniProt P13569, DEL508-508)?
30 to 80%
